experiment: Half life in Wistar Han rat at 1 mg/kg, iv or 2 mg/kg, po; settings: in vivo

{"columns": ["smiles-structure", "unit-abbrev", "half-life"],
 "data": [
  ["Cc1c([C@@H](O)CN2CCC3(CC2)CCN(c2ccc(=O)n(C)n2)C3=O)ccc2c1COC2=O", "h", 2.8]
]}

###

test: Half life in Wistar Han rat at 0.5 mg/kg, iv or 1 mg/kg, po; type: ADME, organism-based; conditions: in vivo

{"columns": ["smiles-structure", "unit-abbrev", "half-life"],
 "data": [
  ["COc1nsc(N2CCC3(CCN(C[C@H](O)c4ccc5c(c4C)COC5=O)CC3)C2=O)n1", "h", 4.7],
  ["COc1cc(N2CCC3(CCN(C[C@H](O)c4ccc5c(c4C)COC5=O)CC3)C2=O)ccn1", "h", 4.1],
  ["Cc1nccc(N2CCC3(CCN(C[C@H](O)c4ccc5c(c4C)COC5=O)CC3)C2=O)n1", "h", 2.6],
  ["COc1nccc(N2CCC3(CCN(C[C@H](O)c4ccc5c(c4C)COC5=O)CC3)C2=O)n1", "h", 4.1],
  ["Cc1nsc(N2CCC3(CCN(C[C@H](O)c4ccc5c(c4C)COC5=O)CC3)C2=O)n1", "h", 1.9],
  ["Cc1cc(N2CCC3(CCN(C[C@H](O)c4ccc5c(c4C)COC5=O)CC3)C2=O)sn1", "h", 2.4],
  ["Cc1c([C@@H](O)CN2CCC3(CC2)CCN(c2ccncc2)C3=O)ccc2c1COC2=O", "h", 2]
]}

###

molecular target: Voltage-dependent L-type calcium channel subunit alpha-1C (Homo sapiens); assay: Inhibition of Cav1.2 (unknown origin)
Sequence (Q13936 whole entry): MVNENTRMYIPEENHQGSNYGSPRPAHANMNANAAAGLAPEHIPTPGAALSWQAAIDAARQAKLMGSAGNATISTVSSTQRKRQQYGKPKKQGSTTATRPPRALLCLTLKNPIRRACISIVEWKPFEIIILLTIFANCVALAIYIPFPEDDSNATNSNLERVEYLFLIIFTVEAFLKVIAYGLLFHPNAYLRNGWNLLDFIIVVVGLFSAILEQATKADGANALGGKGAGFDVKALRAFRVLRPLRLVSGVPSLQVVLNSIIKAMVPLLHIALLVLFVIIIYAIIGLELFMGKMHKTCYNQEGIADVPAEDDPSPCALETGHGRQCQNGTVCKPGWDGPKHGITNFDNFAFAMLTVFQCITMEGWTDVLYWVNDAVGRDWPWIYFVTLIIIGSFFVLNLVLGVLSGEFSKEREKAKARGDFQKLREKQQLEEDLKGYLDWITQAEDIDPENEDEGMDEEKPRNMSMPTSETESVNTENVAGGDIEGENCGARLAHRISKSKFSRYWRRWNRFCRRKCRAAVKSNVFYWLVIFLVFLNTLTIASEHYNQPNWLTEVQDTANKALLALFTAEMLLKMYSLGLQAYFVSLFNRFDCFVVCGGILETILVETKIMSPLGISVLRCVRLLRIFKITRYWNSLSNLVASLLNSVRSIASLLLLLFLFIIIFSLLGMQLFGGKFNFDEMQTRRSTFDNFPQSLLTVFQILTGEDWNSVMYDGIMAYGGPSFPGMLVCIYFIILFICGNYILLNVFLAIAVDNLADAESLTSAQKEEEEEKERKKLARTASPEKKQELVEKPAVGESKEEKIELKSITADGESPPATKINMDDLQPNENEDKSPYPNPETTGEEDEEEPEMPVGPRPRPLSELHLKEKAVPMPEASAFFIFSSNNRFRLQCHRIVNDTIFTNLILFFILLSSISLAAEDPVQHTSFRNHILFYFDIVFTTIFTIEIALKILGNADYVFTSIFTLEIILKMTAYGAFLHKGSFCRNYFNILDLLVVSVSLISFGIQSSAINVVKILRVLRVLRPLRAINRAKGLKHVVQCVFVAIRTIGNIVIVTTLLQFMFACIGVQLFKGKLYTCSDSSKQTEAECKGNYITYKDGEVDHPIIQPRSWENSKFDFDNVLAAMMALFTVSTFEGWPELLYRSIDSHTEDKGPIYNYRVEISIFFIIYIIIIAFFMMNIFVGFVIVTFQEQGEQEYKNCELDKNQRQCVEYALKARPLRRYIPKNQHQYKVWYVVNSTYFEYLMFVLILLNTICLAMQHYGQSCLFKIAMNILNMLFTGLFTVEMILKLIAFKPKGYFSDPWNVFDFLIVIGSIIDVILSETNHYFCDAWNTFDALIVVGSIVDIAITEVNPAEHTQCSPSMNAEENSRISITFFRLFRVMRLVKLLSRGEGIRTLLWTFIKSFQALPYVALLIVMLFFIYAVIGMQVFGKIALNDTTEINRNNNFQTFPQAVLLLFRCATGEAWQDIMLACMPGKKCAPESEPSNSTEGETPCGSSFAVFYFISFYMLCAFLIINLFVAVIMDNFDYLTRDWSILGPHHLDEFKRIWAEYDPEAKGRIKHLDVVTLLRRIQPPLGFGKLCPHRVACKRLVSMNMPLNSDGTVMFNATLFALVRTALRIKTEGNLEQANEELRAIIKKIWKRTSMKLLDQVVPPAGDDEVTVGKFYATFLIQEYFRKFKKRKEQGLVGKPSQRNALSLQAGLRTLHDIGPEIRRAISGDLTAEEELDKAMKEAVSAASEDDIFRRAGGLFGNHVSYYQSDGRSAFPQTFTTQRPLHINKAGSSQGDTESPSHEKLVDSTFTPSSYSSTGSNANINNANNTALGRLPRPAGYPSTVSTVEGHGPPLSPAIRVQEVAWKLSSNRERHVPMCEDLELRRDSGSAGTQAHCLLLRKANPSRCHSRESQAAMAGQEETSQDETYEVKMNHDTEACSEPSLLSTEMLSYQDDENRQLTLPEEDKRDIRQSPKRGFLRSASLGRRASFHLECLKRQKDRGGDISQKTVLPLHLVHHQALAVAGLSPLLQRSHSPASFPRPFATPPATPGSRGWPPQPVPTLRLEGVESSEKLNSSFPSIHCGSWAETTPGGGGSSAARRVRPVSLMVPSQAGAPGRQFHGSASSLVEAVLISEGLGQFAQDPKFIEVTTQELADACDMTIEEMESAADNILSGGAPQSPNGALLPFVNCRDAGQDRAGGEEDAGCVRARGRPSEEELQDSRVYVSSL

{"columns": ["smiles-structure", "IC50"],
 "data": [
  ["Cc1c([C@@H](O)CN2CCC3(CC2)CCN(c2ccc(=O)n(C)n2)C3=O)ccc2c1COC2=O", "> 30 µM"]
]}

###

experiment: Clearance in Wistar Han rat at 1 mg/kg, iv or 2 mg/kg, po; conditions: in vivo

{"columns": ["smiles-structure", "unit-abbrev", "clearance"],
 "data": [
  ["Cc1c([C@@H](O)CN2CCC3(CC2)CCN(c2ccc(=O)n(C)n2)C3=O)ccc2c1COC2=O", "mL/min/kg", 25]
]}

###

test: Half life in Beagle dog at 1 mg/kg, iv; assay type: ADME, organism-based, Canis lupus familiaris; conditions: in vivo
metric: half-life (h)

{"columns": ["smiles-structure", "unit-abbrev", "value-reported"],
 "data": [
  ["Cc1c([C@@H](O)CN2CCC3(CC2)CCN(c2ccc(=O)n(C)n2)C3=O)ccc2c1COC2=O", "h", 5.8],
  ["COc1nsc(N2CCC3(CCN(C[C@H](O)c4ccc5c(c4C)COC5=O)CC3)C2=O)n1", "h", 1.3],
  ["COc1nccc(N2CCC3(CCN(C[C@H](O)c4ccc5c(c4C)COC5=O)CC3)C2=O)n1", "h", 1]
]}

Cited source for all entries: ChEMBL document CHEMBL4028831
